Numbers sourced from PubChem BioAssay (Tox21).

# measurement_description: qHTS assay for identifying genotoxic compounds that show differential cytotoxicity against isogenic chicken DT40 cell lines with known DNA damage response pathways - Rev3 mutant cell line (AID 743014); further: nearly all actives have a fitted effect of over 55% in size
# condition_label: chicken DT40 Rev3-/- viability, CellTiter-Glo, 40 h; series mostly up to 68.4 µM
Inconclusive results are not listed. Activity calls are given as the source filed them. The call rests on the fitted dose curve; in most records, active means well fitted cell-killing curve with a large enough effect in the repeat runs; inconclusive means weak or mixed curves, or effect the other way; inactive means no such curve, though single readings can be large or run the other way.
Please reply with one of these outcomes: Yes = active, No = inactive

compound	class
CC(C)(C)C(=O)C(=O)O	No

Assay result, entry "Cc1cc(=O)c2c(O)c3c(O)cc(=O)c4c3c3c(cc(O)c1c23)C(C)(C)C=4O" — outcome?
Yes

Assay result, entry CN1CCCC(CC2c3ccccc3Sc3ccccc32)C1 (stereo unspecified) — outcome?
Yes

Assay result, entry "C[C@]1(Cn2ccnn2)[C@H](C(=O)O)N2C(=O)C[C@H]2S1(=O)=O" — outcome?
No

Assay result, entry "C=C(C)[C@@H]1CCC2=CCC[C@@H](C)[C@]2(C)C1" — outcome?
Yes

Assay result, entry "CO/N=C(/C(=O)N[C@@H]1C(=O)N2C(C(=O)O)=C(COC(N)=O)CS[C@H]12)c1ccco1" — outcome?
No

* * *

# assayed_system: Cytochrome P450 2C19 (Homo sapiens) (UniProt P33261)
# Sequence (P33261 whole entry, looked up): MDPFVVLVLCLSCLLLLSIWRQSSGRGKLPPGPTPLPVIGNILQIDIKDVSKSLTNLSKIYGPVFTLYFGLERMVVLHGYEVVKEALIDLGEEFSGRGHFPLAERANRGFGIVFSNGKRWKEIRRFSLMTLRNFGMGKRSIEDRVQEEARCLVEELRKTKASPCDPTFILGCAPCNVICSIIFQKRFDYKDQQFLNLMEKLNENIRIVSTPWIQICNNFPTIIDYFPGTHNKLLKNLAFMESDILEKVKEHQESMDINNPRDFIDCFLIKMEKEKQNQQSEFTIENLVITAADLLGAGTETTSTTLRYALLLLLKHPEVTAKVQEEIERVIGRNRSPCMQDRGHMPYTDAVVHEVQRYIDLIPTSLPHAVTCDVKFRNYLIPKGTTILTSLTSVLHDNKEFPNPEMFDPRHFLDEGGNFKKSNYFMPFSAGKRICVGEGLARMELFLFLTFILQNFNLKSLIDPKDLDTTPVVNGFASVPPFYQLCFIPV
# measurement_description: Cytochrome P450 Family 2 Subfamily C Member 19 (CYP2C19) small molecule antagonists: luciferase reporter qHTS assay (AID 1671197); further: nearly all actives have a fitted effect of over 65% in size; further: potency means the concentration at half of the fitted maximal effect
# condition_label: P450-Glo CYP2C19 enzyme, luciferin luminescence, 1 h; series mostly up to 52.9 µM
Records with an inconclusive call do not appear. Activity calls are given as the source filed them. The call rests on the fitted dose curve; in most records, active means well fitted inhibition curve with a large enough effect in the repeat runs; inconclusive means weak or mixed curves; inactive means no such curve, though single readings can be large or run the other way.
measured_attribute: Potency

molecule	assayed_system	observed
OCCOCC#CCOCCO	Cytochrome P450 2C19 (Homo sapiens) (UniProt P33261)	inactive
NC1[C@H]2CN(c3nc4c(cc3F)c(=O)c(C(=O)O)cn4-c3ccc(F)cc3F)C[C@@H]12 (stereo partly specified)	Cytochrome P450 2C19 (Homo sapiens) (UniProt P33261)	inactive
CCCCCCCCCI	Cytochrome P450 2C19 (Homo sapiens) (UniProt P33261)	inactive
CCOC(=O)c1ccc(C#Cc2ccc3c(c2)C(C)(C)CCS3)nc1	Cytochrome P450 2C19 (Homo sapiens) (UniProt P33261)	inactive
CN(C)CCN1C(=O)c2ccccc2N(C)c2ccccc21	Cytochrome P450 2C19 (Homo sapiens) (UniProt P33261)	inactive
CCC(C)(C)OC	Cytochrome P450 2C19 (Homo sapiens) (UniProt P33261)	inactive

So for "CCOc1ccccc1O[C@H](c1ccccc1)[C@H]1CNCCO1" , the logged Potency turned out to be inactive

So for "NCCNCCO" , the logged Potency turned out to be inactive

So for O=C(OCC(O)CO)c1ccccc1Nc1ccnc2cc(Cl)ccc12 (stereo unspecified) , the logged Potency turned out to be 8.71 µM (active)

So for "CC(C)(c1ccccc1)c1ccccc1" , the logged Potency turned out to be inactive

So for "CCCCCCCC/C=C\CCCCCCCCO" , the logged Potency turned out to be inactive

So for "C=COCC(C)C" , the logged Potency turned out to be inactive

So for Cc1cc2c(OCC(CNC(C)(C)C)OC(=O)c3ccccc3)cccc2[nH]1 (stereo unspecified) , the logged Potency turned out to be 38.9 µM (active)

So for "Oc1cccc(O)c1O" , the logged Potency turned out to be 70.4 µM (active)

So for "O=C(/C=C/c1ccccc1)OCCc1ccccc1" , the logged Potency turned out to be 20 µM (active)
